Biological target: HRP Type VIA (Armoracia rusticana, UniProt P00433)
Sequence (P00433 31-338): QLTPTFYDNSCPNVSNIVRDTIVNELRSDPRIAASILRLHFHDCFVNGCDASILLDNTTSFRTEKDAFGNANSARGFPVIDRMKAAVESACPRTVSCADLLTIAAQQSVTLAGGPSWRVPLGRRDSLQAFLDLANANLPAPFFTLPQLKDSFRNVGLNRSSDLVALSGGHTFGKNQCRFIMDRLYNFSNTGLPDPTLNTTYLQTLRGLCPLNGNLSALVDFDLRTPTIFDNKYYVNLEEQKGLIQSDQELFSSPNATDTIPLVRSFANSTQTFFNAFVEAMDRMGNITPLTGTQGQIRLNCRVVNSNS
Details: 0.1 mg/ml, 10µl test compound; control value in brackets not reported
VALUE_TYPE: (d) Signal: Background: ratio (control = with no enhancer)
API doc: respond with a numeric literal and nothing else, no unit.

INSERT INTO results (smiles_data, reported_measurement) VALUES
  ('c1ccc(B2OCCCO2)cc1', 2.2);

// query What measured (d) Signal: Background: ratio (control = with no enhancer) goes with "OB(O)c1cccc2c1oc1ccccc12" ?
// result 1.5

* * *

Overview of recorded (d) Signal: Background: ratio (control = with no enhancer) for various molecules
Target: HRP Type VIA (Armoracia rusticana)
Sequence (P00433 31-338): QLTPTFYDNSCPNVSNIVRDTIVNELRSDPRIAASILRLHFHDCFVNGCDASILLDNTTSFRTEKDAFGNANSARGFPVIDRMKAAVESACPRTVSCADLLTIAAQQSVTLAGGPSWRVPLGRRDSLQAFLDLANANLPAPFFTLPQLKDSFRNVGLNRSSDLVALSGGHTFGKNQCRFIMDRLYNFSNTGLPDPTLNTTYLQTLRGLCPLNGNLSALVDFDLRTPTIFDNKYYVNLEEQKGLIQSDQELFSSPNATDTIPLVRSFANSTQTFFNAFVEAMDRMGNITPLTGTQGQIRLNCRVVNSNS
Settings: 0.01 mg/ml, 10µl test compound; control value in brackets not reported

INSERT INTO measurements (molecule, reported_measurement) VALUES
  ('COc1ccc(Br)cc1B(O)O', 8.6),
  ('OB(O)c1ccccc1Cl', '2.1 (2.0)'),
  ('OB(O)c1cccc2c1oc1ccccc12', 1.6),
  ('OCC(CO)(CO)COB(O)O [Compound 1017, pentaerythritol borate]', 1.8),
  ('OB(O)c1cccc2ccccc12', 2.5),
  ('O=[N+]([O-])c1cc(B(O)O)ccc1Cl', '2.3 (1.8)');

// query What measured (d) Signal: Background: ratio (control = with no enhancer) goes with "CCCCOB(OCCCC)c1ccc(Br)cc1" ?
// result 38.5 (1.9)

// query Next molecule: "Cc1ccccc1B(O)O"
// result 1.9

* * *

Target: HRP Type VIA (Armoracia rusticana)
Sequence (P00433 31-338): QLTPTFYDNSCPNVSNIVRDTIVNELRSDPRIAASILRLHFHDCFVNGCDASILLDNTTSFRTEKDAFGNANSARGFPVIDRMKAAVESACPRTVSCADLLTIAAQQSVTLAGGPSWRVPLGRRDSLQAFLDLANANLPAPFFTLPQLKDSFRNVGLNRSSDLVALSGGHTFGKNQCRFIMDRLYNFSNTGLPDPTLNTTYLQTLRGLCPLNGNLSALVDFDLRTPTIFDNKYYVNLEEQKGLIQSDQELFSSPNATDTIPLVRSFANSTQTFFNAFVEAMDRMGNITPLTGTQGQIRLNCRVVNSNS
Settings: 1 mg/ml, 10µl test compound
VALUE_TYPE: (c) Increase in signal: background ratio

INSERT INTO measurements (smiles_data, value_type, reported_measurement) VALUES
  ('CC(C)COB(c1ccccc1)c1ccccc1', '(c) Increase in signal: background ratio', 'N (N = no)'),
  ('OB(O)c1c(Cl)cc(Cl)cc1Cl', '(c) Increase in signal: background ratio', 'N (N = no)'),
  ('OB(O)c1ccc(B(O)O)cc1', '(c) Increase in signal: background ratio', 'N (N = no)');
